# Test system: primary astrocytes
# PROTOCOL_NOTES: Extracellular lactate quantification
# Format: cell-based, mouse
# ASSAY_CONTEXT: Appendix I, secondary screening: extracellular lactate
ASSAY_ENDPOINT: Score_LACTATE
Quick one: just the number, no unit, thanks!

1. Cc1ccc(CNc2ncnc3c2CCC3)o1    0
2. Cc1ccc(C)c([N+]2=C3CCCCN3C(O)(c3ccc(F)cc3)C2)c1 (stereo not drawn)    0.6526
3. O=S(=O)(Nc1cc(F)cc(F)c1)c1ccc2ccccc2c1    0.9262
4. O=C(C[n+]1cc(-c2ccc(Br)cc2)n2c1CCCCC2)c1ccccc1.[Br-]    1.116
5. Fc1ccc(-c2cc3n(n2)CCCN(Cc2ccncc2)C3)cc1    0.6933
6. CC(=O)N1CCCc2cc(S(=O)(=O)NCc3ccccc3)ccc21    0
7. Cc1ccc(F)cc1NC(=O)Cc1nn(C)c(=O)c2ccccc12    0
8. COc1ccccc1S(=O)(=O)Nc1ccc2nc(C)sc2c1    0

### Prompt Which measured Score_LACTATE belongs to O=C(NCc1ccccc1)NC1CCN(c2ncnc3c2CCC3)C1 (stereo not drawn) , tested on primary astrocytes?
### Response 0.3226

### Prompt Which measured Score_LACTATE belongs to Cc1cccc([N+]2=C3SCCCN3C(O)(c3ccc(F)cc3)C2)c1 (stereo not drawn) , tested on primary astrocytes?
### Response 0.4429

### Prompt Which measured Score_LACTATE belongs to COc1ccc(CN2CCN(c3ncnc4c3CCC4)CC2)cc1OC , tested on primary astrocytes?
### Response 0.9841

### Prompt Which measured Score_LACTATE belongs to CC(=O)c1ccc(NS(=O)(=O)c2cc(-c3noc(C4CCCC4)n3)cs2)cc1 , tested on primary astrocytes?
### Response 1.215

### Prompt Which measured Score_LACTATE belongs to Cc1ccccc1NC(=O)C1CCCN(c2ncnc3oc(C)c(C)c23)C1 (stereo not drawn) , tested on primary astrocytes?
### Response 0.6364

### Prompt Which measured Score_LACTATE belongs to COc1ccccc1NC(=O)Cc1nn(C)c(=O)c2ccccc12 , tested on primary astrocytes?
### Response 0.9281

### Prompt Which measured Score_LACTATE belongs to CCc1ccc(S(=O)(=O)Nc2ccc3[nH]ncc3c2)cc1 , tested on primary astrocytes?
### Response 0.4419

### Prompt Which measured Score_LACTATE belongs to CCOc1ccc(C2(O)C[N+](c3ccccc3C)=C3CCCCN32)cc1.[Br-] (stereo not drawn) , tested on primary astrocytes?
### Response 0

### Prompt Which measured Score_LACTATE belongs to COc1ccc(C2(O)C[N+](c3cccc(C)c3)=C3CCCCN32)cc1 (stereo not drawn) , tested on primary astrocytes?
### Response 0

### Prompt Which measured Score_LACTATE belongs to O=C(NCc1cccc(F)c1)NC1CCN(c2ncnc3c2CCC3)C1 (stereo not drawn) , tested on primary astrocytes?
### Response 0

* * *

# Tested on: primary astrocytes
# PROTOCOL_NOTES: Extracellular lactate quantification
# Format: cell-based, mouse
# ASSAY_CONTEXT: Appendix II, CDC54K library
Classify as follows. Reported Score Lact. greater than or equal to 0.6: met. Reported Score Lact. below: not met.

Look over these answered cases.
1) COc1ccc(NS(=O)(=O)c2cccc(NC(=O)c3ccc[nH]3)c2)cc1 [T0517-4117]    met
2) COc1ccc(C(C)NC(=O)c2cc(=O)c3ccccc3o2)cc1I (centres unmarked) [T5710343]    met
3) Cc1ccc(S(=O)(=O)Nc2ccc(F)c(F)c2F)cc1[N+](=O)[O-] [T5729557]    met
4) O=C(O)C(=O)O.c1ccc(Cc2ccc(OCCn3ccnc3)cc2)cc1 [T5821723]    met

### Prompt Does CC(=O)N1CC(C)(C)c2cc(S(=O)(=O)NCc3ccc(C)cc3)ccc21 [L302-0069] have a reported Score Lact. of at least 0.6?
### Response not met

### Prompt Does Cc1nnsc1C(=O)N1CCN(C(C)C)CC1 [Z606-5341] have a reported Score Lact. of at least 0.6?
### Response not met

### Prompt Does C1=C(c2ccccc2)c2c(ncnc2NCCN2CCOCC2)C1.O=C(O)C(=O)O.O=C(O)C(=O)O [T0513-0213] have a reported Score Lact. of at least 0.6?
### Response not met

### Prompt Does Cc1cc(C)cc(NC(=O)CN2CCCC2c2ccc3c(c2)OCCCO3)c1 (centres unmarked) [T5993799] have a reported Score Lact. of at least 0.6?
### Response met

### Prompt Does COc1cccc(CNS(=O)(=O)c2ccc3c(c2)CCCN3C(C)=O)c1 [T5967389] have a reported Score Lact. of at least 0.6?
### Response not met

* * *

# System: primary astrocytes
# PROTOCOL_NOTES: Intracellular glycogen quantification
# Assay type: cell-based, mouse
# ASSAY_CONTEXT: CDC54K hits, 10 μM, 3 h
ASSAY_ENDPOINT: Glycogen (statistical significance of glycogen degradation)

A selection of reference data follows.
1. COc1cc(C)c(Cl)cc1S(=O)(=O)NCc1ccncc1 [T5580243]    ns
2. Fc1ccc(-c2cc3n(n2)CCCN(Cc2ccncc2)C3)cc1 [T202-1455]    ns
3. COc1ccccc1NC(=O)Cc1nn(C)c(=O)c2ccccc12 [K851-0113]    ns
4. CSc1cccc(NS(=O)(=O)c2ccc3onc(C(=O)N4CCCC4)c3c2)c1 [L995-0125]    ns

### Prompt Endpoint output: Glycogen (statistical significance of glycogen degradation) of CC(=O)c1cccc(NC(=O)C(C)Sc2ncnc3ccccc23)c1 (stereo not drawn) [T0511-9200] . Value?
### Response ns

### Prompt Endpoint output: Glycogen (statistical significance of glycogen degradation) of N#Cc1ccc(C(=O)N2CCC(Nc3ncnc4c3CCC4)C2)cc1 (stereo not drawn) [T636-2387] . Value?
### Response ns

* * *

# Test system: primary astrocytes
# PROTOCOL_NOTES: Extracellular lactate quantification
# Format: cell-based, mouse
# ASSAY_CONTEXT: Appendix II, CDC54K library
Our labelling divides records by Score Lact. into ranges: Low: < 0.5; Mid: ≥ 0.5 and < 0.6; High: ≥ 0.6

Look over these answered cases.
1. CN(C)c1ccc2ncnc(N3CCN(C(=O)c4ccc(Cl)cc4)CC3)c2c1    Mid
2. CC(=O)c1c(C)[nH]c(C(=O)C(C)N(C)Cc2ccc3c(c2)OCO3)c1C (stereo not shown)    High

### Prompt Band assignment needed for CCCCN1C(=O)C(C)(C(=O)Nc2ccc(OCC)cc2)Oc2cccnc21 (stereo not shown) please.
### Response Low

### Prompt Band assignment needed for CC(=O)N1CCCc2cc(S(=O)(=O)Nc3ccc(OC(F)(F)F)cc3)ccc21 please.
### Response Mid

### Prompt Band assignment needed for CC(=O)c1c(C)[nH]c(C(=O)N(C)Cc2ccc(C)cc2C)c1C please.
### Response High

### Prompt Band assignment needed for CCc1c(C)nc2ncnn2c1NC1CCCCCC1 please.
### Response Low

### Prompt Band assignment needed for Cc1nc2ncnn2c(NCc2ccco2)c1C please.
### Response Low

### Prompt Band assignment needed for CC(=O)N1CC(C)(C)c2cc(S(=O)(=O)Nc3ccc(I)cc3C)ccc21 please.
### Response Mid

### Prompt Band assignment needed for Cc1nc2ncnn2c(NC2CCCCCC2)c1C please.
### Response Mid

* * *

# System: primary astrocytes
# PROTOCOL_NOTES: Extracellular lactate quantification
# Format: cell-based, mouse
# ASSAY_CONTEXT: Appendix I, secondary screening: extracellular lactate
The following compounds are shown together with reported Score_LACTATE values.
Quick one: just the number, no unit, thanks!

### Prompt Endpoint output: Score_LACTATE of COc1cccc(CNS(=O)(=O)c2ccc3c(c2)CCCN3C(C)=O)c1 . Value?
### Response 0.4517

### Prompt Endpoint output: Score_LACTATE of Cc1cccc(NS(=O)(=O)c2cc(-c3noc(C)n3)cs2)c1 . Value?
### Response 1.578

### Prompt Endpoint output: Score_LACTATE of Cc1oc2ncnc(N3CCCC(C(=O)NCc4ccccc4)C3)c2c1C (stereo not shown) . Value?
### Response 0.9001

### Prompt Endpoint output: Score_LACTATE of c1csc(C(Nc2ncnc3sccc23)C2CC2)c1 (stereo not shown) . Value?
### Response 1.287

### Prompt Endpoint output: Score_LACTATE of COc1cccc(-c2cc3n(n2)CCCN(Cc2ccncc2)C3)c1 . Value?
### Response 0

### Prompt Endpoint output: Score_LACTATE of Cc1cccc([N+]2=C3CCCCN3C(O)(c3ccc(F)cc3)C2)c1C (stereo not shown) . Value?
### Response 0.6821

### Prompt Endpoint output: Score_LACTATE of Cn1nccc1-c1csc(S(=O)(=O)Nc2ccc(F)cc2)c1 . Value?
### Response 0.7898

### Prompt Endpoint output: Score_LACTATE of CCOc1ccc(C2(O)C[N+](c3cc(OC)ccc3OC)=C3CCCCCN32)cc1 (stereo not shown) . Value?
### Response 0.4766

Every entry's value here was drawn from patent US12310967B2.
